Hey, just so you know, these numbers are from PubChem BioAssay AID449739.

molecular target: Voltage-dependent T-type calcium channel subunit alpha-1H (Homo sapiens) (UniProt O95180); experiment: Cav3.2 calcium influx blockers – cell-based, Fluo-4 calcium fluorescence, FDSS, MLSMR library, primary screen (AID 449739); conditions: Cav3.2-expressing cells, at 10 µM, hits give low values
Sequence (O95180 whole entry, looked up): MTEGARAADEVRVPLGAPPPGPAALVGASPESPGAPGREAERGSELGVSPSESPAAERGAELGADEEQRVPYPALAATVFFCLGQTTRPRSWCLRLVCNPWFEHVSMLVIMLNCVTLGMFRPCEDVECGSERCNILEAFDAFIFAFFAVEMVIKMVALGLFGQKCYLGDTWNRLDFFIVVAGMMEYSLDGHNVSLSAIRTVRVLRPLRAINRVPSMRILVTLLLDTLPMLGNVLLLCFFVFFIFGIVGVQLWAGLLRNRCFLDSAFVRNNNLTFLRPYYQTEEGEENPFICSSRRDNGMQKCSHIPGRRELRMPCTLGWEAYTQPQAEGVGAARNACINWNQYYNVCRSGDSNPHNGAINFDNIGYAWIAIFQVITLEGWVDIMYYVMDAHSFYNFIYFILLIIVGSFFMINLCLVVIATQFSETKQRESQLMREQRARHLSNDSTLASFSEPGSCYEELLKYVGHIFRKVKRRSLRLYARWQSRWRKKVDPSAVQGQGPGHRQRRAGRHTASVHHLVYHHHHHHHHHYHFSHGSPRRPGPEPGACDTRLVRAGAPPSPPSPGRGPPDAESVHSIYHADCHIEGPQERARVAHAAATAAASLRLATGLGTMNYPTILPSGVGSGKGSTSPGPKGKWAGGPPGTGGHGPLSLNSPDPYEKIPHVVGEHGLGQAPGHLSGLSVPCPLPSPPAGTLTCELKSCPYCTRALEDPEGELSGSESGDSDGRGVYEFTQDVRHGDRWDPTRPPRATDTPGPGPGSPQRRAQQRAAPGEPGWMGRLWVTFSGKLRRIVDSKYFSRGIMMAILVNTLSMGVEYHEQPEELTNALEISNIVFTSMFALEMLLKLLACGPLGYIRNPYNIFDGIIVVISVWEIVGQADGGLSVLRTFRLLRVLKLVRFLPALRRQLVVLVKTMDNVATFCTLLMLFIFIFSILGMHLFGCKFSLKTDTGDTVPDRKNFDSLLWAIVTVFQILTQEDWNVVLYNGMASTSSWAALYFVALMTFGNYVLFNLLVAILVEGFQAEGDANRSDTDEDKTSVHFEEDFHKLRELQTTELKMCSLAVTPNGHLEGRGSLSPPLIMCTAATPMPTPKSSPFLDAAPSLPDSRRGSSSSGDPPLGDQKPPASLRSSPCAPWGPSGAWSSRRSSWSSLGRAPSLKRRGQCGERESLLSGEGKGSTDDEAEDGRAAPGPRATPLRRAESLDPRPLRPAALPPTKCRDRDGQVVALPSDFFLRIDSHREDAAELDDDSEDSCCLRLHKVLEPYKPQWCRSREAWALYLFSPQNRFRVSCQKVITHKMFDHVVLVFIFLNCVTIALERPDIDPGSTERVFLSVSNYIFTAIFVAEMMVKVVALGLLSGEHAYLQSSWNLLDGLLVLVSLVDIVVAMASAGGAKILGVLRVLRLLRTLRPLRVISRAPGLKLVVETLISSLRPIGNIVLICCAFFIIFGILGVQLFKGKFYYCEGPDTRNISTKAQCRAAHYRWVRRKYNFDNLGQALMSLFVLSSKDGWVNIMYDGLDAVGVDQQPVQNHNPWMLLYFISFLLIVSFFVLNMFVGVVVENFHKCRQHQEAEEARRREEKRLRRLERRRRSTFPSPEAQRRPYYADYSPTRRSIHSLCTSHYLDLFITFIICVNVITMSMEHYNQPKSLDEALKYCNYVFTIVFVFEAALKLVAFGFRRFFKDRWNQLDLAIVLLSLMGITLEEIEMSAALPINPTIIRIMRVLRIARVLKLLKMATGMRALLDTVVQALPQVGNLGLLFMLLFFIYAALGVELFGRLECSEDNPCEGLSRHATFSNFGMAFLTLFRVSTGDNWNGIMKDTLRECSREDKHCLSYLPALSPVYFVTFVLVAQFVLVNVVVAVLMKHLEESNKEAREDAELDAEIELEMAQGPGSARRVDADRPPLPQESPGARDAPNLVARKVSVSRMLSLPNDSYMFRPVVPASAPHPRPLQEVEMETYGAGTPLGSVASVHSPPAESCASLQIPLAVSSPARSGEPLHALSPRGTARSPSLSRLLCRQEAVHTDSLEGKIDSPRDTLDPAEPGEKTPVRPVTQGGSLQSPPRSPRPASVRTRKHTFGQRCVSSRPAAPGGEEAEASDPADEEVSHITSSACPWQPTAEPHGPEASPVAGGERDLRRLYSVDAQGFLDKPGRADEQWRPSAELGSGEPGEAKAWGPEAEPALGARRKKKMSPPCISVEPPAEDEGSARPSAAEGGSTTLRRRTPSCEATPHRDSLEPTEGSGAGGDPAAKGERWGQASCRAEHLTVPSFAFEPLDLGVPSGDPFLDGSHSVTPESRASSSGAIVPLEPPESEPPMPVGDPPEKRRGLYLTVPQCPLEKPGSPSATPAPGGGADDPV
Hit rate of the full screen: of about 100,000 compounds, about 4,200 (4.2%) were called active. This excerpt belongs to a sample that is enriched for actives.
endpoint: B-score
Simply state the number, no unit and no words.

Record summary for COc1ccc(Cl)cc1NC(=O)CN(C)C(=O)CNC(=O)C12CC3CC(CC(C3)C1)C2 : reported B-score = -3.51

Record summary for O=c1[nH]snc1-c1c(Cl)cccc1Cl : reported B-score = 0.688

Record summary for CCCCN=C1N/C(=C\c2ccco2)C(=O)N1c1ccccc1 : reported B-score = 0.203

Record summary for Cc1ccc(C(=O)NCC(=O)O)cc1S(=O)(=O)N1CCCCC1 : reported B-score = 1.06

Record summary for COC(=O)c1ccc(NC(=O)CSc2nnc(Cc3cccn3C)n2-c2ccc(F)cc2)cc1 : reported B-score = -9.38

Record summary for CC(C)C(OC(=O)c1cccs1)C(=O)NC1CCCCC1 (centres undefined) : reported B-score = -0.509

Record summary for CC(C)=CCC/C(C)=C/C(=O)O : reported B-score = 0.444

Record summary for Cn1cccc1Cc1nnc(SCC(=O)NCCc2ccccc2)n1-c1ccc(F)cc1 : reported B-score = -2.55

Record summary for COC(=O)C1=C(C(=O)OC)[C@@H]2N(C)c3ccccc3[C@@]23C[C@@H](C(=O)OC)N(C(C)=O)C3=N1 : reported B-score = 0.294

Record summary for O=c1c2ccccc2nc(N/N=C/c2ccccc2)n1O : reported B-score = -5.17

Record summary for O=C(c1ccc(-n2cnnn2)cc1)N1CCN(C(c2ccccc2)c2ccccc2)CC1 : reported B-score = -4.29

Record summary for COc1ccc(-n2c(Cc3cccn3C)nnc2SCC(=O)Nc2cc(C)cc(C)c2)cc1 : reported B-score = -8.52

Record summary for O=C(NCC(=O)N(Cc1cccs1)C(C(=O)NC1CCCCC1)c1ccco1)c1cccs1 (centres undefined) : reported B-score = -6.73

Record summary for C/C(=N\NS(=O)(=O)c1cccc([N+](=O)[O-])c1)c1cc2ccccc2o1 : reported B-score = -0.824

Record summary for CCOC(=O)C1=C(CNC2CCCCC2)NC(=O)NC1c1cc(C)ccc1C (centres undefined) : reported B-score = -3.93

Record summary for Cn1c(SCC(=O)N2CCCc3ccccc32)nc2ccccc2c1=O : reported B-score = -2.58

Record summary for O=C(O)CC(c1ccccc1)n1cnnn1 (centres undefined) : reported B-score = 0.533

Record summary for COc1ccc(OC)c(C(=O)c2ccc(C(=O)O)cc2)c1 : reported B-score = -3.15

Record summary for COc1ccc(OC)c(C(=O)c2coc3ccc(OC)cc23)c1 : reported B-score = -3.61

Record summary for COc1ccc(C(=O)Nc2ccccc2C(=O)N/N=C/c2ccc(O)c(OC)c2)cc1 : reported B-score = 0.134

Record summary for CCCCC(=O)N/N=C(\C)CC(=O)Nc1cc(Cl)ccc1OC : reported B-score = -2.17

Record summary for Cc1ccc(C)c(NC(=O)CSc2nnc(Cc3cccn3C)n2-c2ccc(F)cc2)c1 : reported B-score = -2.84

Record summary for CCOC(=O)C1=C(CSc2nccn2C)NC(=O)NC1c1ccc(OC)cc1 (centres undefined) : reported B-score = 0.905

Record summary for CC1(C)S[C@@H]2[C@H](NC(=O)COc3ccccc3)C(=O)N2C1C(=O)OCc1ccccc1 (some centres undefined) : reported B-score = -1.43

Record summary for O=C(NCc1ccccc1)c1onc(CSc2ccncc2)c1C(=O)NCc1ccccc1 : reported B-score = -0.591

Record summary for COc1ccc(Cl)cc1NC(=O)c1oc(C)nc1C : reported B-score = -0.339

Record summary for FC(F)(F)c1nc2ccccc2nc1N/N=C/c1ccc(Cl)cc1 : reported B-score = -0.00807

Record summary for C/C(=N\NS(=O)(=O)c1ccc(Br)cc1)c1cccs1 : reported B-score = -5.02

Record summary for CC(C)C(NS(=O)(=O)c1cccs1)C(=O)Nc1nc(C(C)(C)C)cs1 (centres undefined) : reported B-score = -3.54

Record summary for O=C(N/N=C\c1cccc(Br)c1)c1ccccc1-n1cccc1 : reported B-score = -6.5

Record summary for COc1ccc(Br)cc1/C=N/n1c(C)nnc1C : reported B-score = 0.564

Record summary for Cc1nc(NC(=O)c2cccc(Cl)c2)sc1-c1csc(Nc2cccc(Cl)c2)n1 : reported B-score = 1.63

Record summary for COc1ccc2oc(C)c(NC(C)=O)c2c1 : reported B-score = 0.131

Record summary for COC(C/C=C/C(=O)[C@@H](C)OCc1ccccc1)OC : reported B-score = -1.65

Record summary for O=C(Nc1ccc2c(c1)OCCO2)c1ccc(Cl)c(S(=O)(=O)N2CCCCC2)c1 : reported B-score = -1.46

Record summary for COc1cc(Br)cc(/C=N/c2ncn[nH]2)c1O : reported B-score = -3.11

Record summary for O=C(NCc1cc(C(F)(F)F)cc(C(F)(F)F)c1)C1CC(c2cccc(F)c2)=NO1 (centres undefined) : reported B-score = -0.916

Record summary for COc1ccccc1NC(=O)CSc1nnc(Cc2cccn2C)n1-c1ccc(F)cc1 : reported B-score = -2.37

Record summary for O=Cc1c(N2CCN(c3cccc(Cl)c3)CC2)nc2ccccn2c1=O : reported B-score = -1.81

Record summary for Clc1ccc(Cn2ncc3c(NCc4cccnc4)ncnc32)cc1 : reported B-score = -4.69

Record summary for C=CCn1c(Cn2nnc3ccccc32)nnc1SCC(=O)N/N=C/c1cc(Br)cc(OC)c1O : reported B-score = 0.722

Record summary for O=S(=O)(NCc1cccnc1)c1ccc(Cl)nc1 : reported B-score = 0.0815

Record summary for COC(=O)CCCC1=CC2=CC(=O)C(C)(OC(=O)c3cccs3)C(=O)C2=CN1CC1CC1 (centres undefined) : reported B-score = 1.17

Record summary for O=S(=O)(NN=C1CCCCCCC1)c1ccc(Br)cc1 : reported B-score = -1.71

----------
molecular target: Voltage-dependent T-type calcium channel subunit alpha-1H (Homo sapiens) (UniProt O95180); assay: Cav3.2 calcium influx blockers – cell-based, Fluo-4 calcium fluorescence, FDSS, MLSMR library, primary screen (AID 449739); settings: Cav3.2-expressing cells, at 10 µM, hits give low values
In all, about 100,000 compounds went through this assay and about 4,200 (4.2%) were called active. Shown is part of a subset that was picked to be rich in actives.
Field: label. Allowed values: Condition met (B-score < -1) or Condition not met (B-score >= -1).

### Prompt Just wondering, is B-score of Cc1ccc(C(=O)NNC(=O)OC(C)(C)C)c(Cl)c1 below -1?
### Response Condition not met

### Prompt Just wondering, is B-score of CCCCC1=CC2=CC(=O)C(C)(OC(=O)CC)C(=O)C2=CN1CCCOC(C)C (centres undefined) below -1?
### Response Condition not met

### Prompt Just wondering, is B-score of CCO[C@H]1OC(C(=O)O)=C[C@@H](C2CCCCC2)[C@@H]1CCCO below -1?
### Response Condition not met

### Prompt Just wondering, is B-score of O=C(Nc1cccc(NC(=O)N2CCN(c3ccccc3)CC2)c1)N1CCN(c2ccccc2)CC1 below -1?
### Response Condition met

### Prompt Just wondering, is B-score of CC(C)(C)C(=O)Nc1ccc(C(=O)N/N=C/c2ccccc2OC(=O)c2ccc(Cl)cc2Cl)cc1 below -1?
### Response Condition met

### Prompt Just wondering, is B-score of COC(=O)CN1C(C)=Nc2ccc(Br)cc2C1c1ccccc1 (centres undefined) below -1?
### Response Condition not met

### Prompt Just wondering, is B-score of CC(C)CC(CO)N1CCN(C(=O)c2ccc(Cl)cc2Cl)CCC1=O (centres undefined) below -1?
### Response Condition not met

### Prompt Just wondering, is B-score of c1ccc2c(CSCc3nc4ccccc4[nH]3)cccc2c1 below -1?
### Response Condition met

### Prompt Just wondering, is B-score of CC(C)(C)OC(=O)NCCCC1=CC2=CC(=O)C(C)(OC(=O)c3ccco3)C(=O)C2=CO1 (centres undefined) below -1?
### Response Condition not met

### Prompt Just wondering, is B-score of COC(=O)CCCC1=CC2=CC(=O)C(C)(OC(=O)c3cccs3)C(=O)C2=CN1CC(C)C (centres undefined) below -1?
### Response Condition not met

### Prompt Just wondering, is B-score of C=CCSc1nnc2c(n1)-c1cccc3cccc-2c13 below -1?
### Response Condition not met

### Prompt Just wondering, is B-score of Cc1ccc(C)n1C(Cc1ccccc1)C(=O)O (centres undefined) below -1?
### Response Condition not met

### Prompt Just wondering, is B-score of CCOC(=O)C1C(=O)NCC1c1ccccc1 (centres undefined) below -1?
### Response Condition not met

### Prompt Just wondering, is B-score of COC(=O)C(C)n1cnc2c(nnn2-c2cccc(Cl)c2)c1=O (centres undefined) below -1?
### Response Condition not met

### Prompt Just wondering, is B-score of COc1ccccc1N1CCN(CCCCOc2ccc(F)cc2)CC1 below -1?
### Response Condition met

### Prompt Just wondering, is B-score of Cc1ccc(NC(=S)NC(=O)c2ccc(-c3ccccc3)cc2)cc1 below -1?
### Response Condition not met

### Prompt Just wondering, is B-score of Cc1ccc(-n2c(C)cc(/C=C(\C#N)C(=O)NCC3CCCO3)c2C)cc1 (centres undefined) below -1?
### Response Condition met

### Prompt Just wondering, is B-score of CC1=CC(C)(C)Nc2ccc(OC(=O)C(Cc3ccccc3)N3C(=O)C4CCCCC4C3=O)cc21 (centres undefined) below -1?
### Response Condition met

### Prompt Just wondering, is B-score of COc1ccc(Cl)cc1C(=O)NCC#N below -1?
### Response Condition not met

### Prompt Just wondering, is B-score of Cc1ccc(C(C(=O)NC2CCCC2)N(Cc2ccco2)C(=O)CCC(=O)Nc2ccccn2)cc1 (centres undefined) below -1?
### Response Condition not met

### Prompt Just wondering, is B-score of COc1ccccc1-c1n[nH]c2c1[C@H](C)CC[C@H]2C(C)C below -1?
### Response Condition met

### Prompt Just wondering, is B-score of Cc1cccc(N(C(=O)Cc2cccs2)C(C(=O)NC2CCCC2)c2ccsc2)c1 (centres undefined) below -1?
### Response Condition met

### Prompt Just wondering, is B-score of CCCCOC(=O)Cn1c(=N)n(CCN(CC)CC)c2ccccc21 below -1?
### Response Condition not met

### Prompt Just wondering, is B-score of COc1ccc(C(=O)NC(=S)NNC(=O)CCc2ccccc2)cc1 below -1?
### Response Condition met

### Prompt Just wondering, is B-score of O=C(NCN1CCN(CCO)CC1)c1cnccn1 below -1?
### Response Condition not met

### Prompt Just wondering, is B-score of CCNC(=S)NNC(=O)Cc1ccccc1 below -1?
### Response Condition not met

### Prompt Just wondering, is B-score of CC(C)n1cnc2c(Nc3cccc(Cl)c3)nc(N(CCO)CCCO)nc21 below -1?
### Response Condition not met

### Prompt Just wondering, is B-score of Cc1ccc(C)c(N(CC(=O)NCc2ccco2)C(=O)CCC(=O)Nc2ccccn2)c1 below -1?
### Response Condition met

### Prompt Just wondering, is B-score of CC1=CC(C)(C)Nc2ccc(OC(=O)CN3C(=O)C4CCCCC4C3=O)cc21 (centres undefined) below -1?
### Response Condition not met

### Prompt Just wondering, is B-score of CCN1CCN(CCCCOc2ccccc2F)CC1 below -1?
### Response Condition not met

### Prompt Just wondering, is B-score of O=C1c2ccccc2S(=O)(=O)N1CC(O)Cn1c2ccccc2c2ccccc21 (centres undefined) below -1?
### Response Condition met

### Prompt Just wondering, is B-score of COCCCn1c(SCC(=O)Nc2ccccc2)nnc1-c1ccncc1 below -1?
### Response Condition met

### Prompt Just wondering, is B-score of COC(=O)Cc1nc2ccccc2[nH]1 below -1?
### Response Condition not met

### Prompt Just wondering, is B-score of O=C(CCCN1C(=O)c2cccc3cccc(c23)C1=O)N1CCN(Cc2ccc3c(c2)OCO3)CC1 below -1?
### Response Condition met

### Prompt Just wondering, is B-score of CCC(CC)C(=O)N1CC(=O)Nc2ccc(Br)cc2C1c1ccccc1 (centres undefined) below -1?
### Response Condition met

### Prompt Just wondering, is B-score of CC1=C(C)C(=O)OC(C(C)C2CCC3C4CC=C5CC(OC6OC(COC7OC(CO)C(O)C(O)C7O)C(O)C(O)C6O)CC(O)C5(C)C4CCC23C)C1 (centres undefined) below -1?
### Response Condition not met

### Prompt Just wondering, is B-score of COc1cccc(N2CCN(C(=O)Nc3ccc4c(c3)NC(=O)CO4)CC2)c1 below -1?
### Response Condition not met

### Prompt Just wondering, is B-score of CCCCOC(=O)Cn1c(=O)n(CC(=O)OCCCC)c2cc(C)ccc21 below -1?
### Response Condition met

### Prompt Just wondering, is B-score of O=C(Nc1ccccc1)N1CCN(Cc2ccccc2)CC1 below -1?
### Response Condition not met

### Prompt Just wondering, is B-score of Cc1ccc2c(c1)N(CC(=O)N(Cc1ccccn1)Cc1ccco1)C(=O)C(C(C)C)O2 (centres undefined) below -1?
### Response Condition met

### Prompt Just wondering, is B-score of COCC(C)NC(=O)c1ccc(-n2nc(C(F)(F)F)cc2-c2cccs2)cc1 (centres undefined) below -1?
### Response Condition not met

### Prompt Just wondering, is B-score of CCc1nnc(SCc2cccc(F)c2)nc1CC below -1?
### Response Condition met

### Prompt Just wondering, is B-score of O=C(CN1CCN(C(=O)c2ccco2)CC1)Nc1ccc(Cl)c(C(F)(F)F)c1 below -1?
### Response Condition met

### Prompt Just wondering, is B-score of COc1ccccc1OCCNc1cc(N2CCOCC2)ccc1[N+](=O)[O-] below -1?
### Response Condition not met
